- Test system: HEK293T (UBE3A T485A transfected, BAR Wnt reporter)
- assay comment: Wnt reporter firefly/Renilla luciferase ratio relative to plate median (fold (linear ratio)); higher = more Wnt/beta-catenin reporter activation
- setup conditions: concentration: 100 uM; 24 h
In all, about 1,100 compounds were measured (“Wnt reporter firefly/Renilla luciferase ratio relative to plate median”: median about 1.1, highest 2% from about 1.6 on). The entries come from a sample that favours the highest values as a whole.
I'd appreciate it if you could supply Wnt reporter firefly/Renilla luciferase ratio values for the items below.
Could you keep your reply to the number by itself?

Quote HEK293T (UBE3A T485A transfected, BAR Wnt reporter) Wnt reporter firefly/Renilla luciferase ratio for entry "CC(C)(C)c1ccc(O)c(C(C)(C)C)c1" . 1.1

Recall the reported Wnt reporter firefly/Renilla luciferase ratio of "c1ccc(Nc2ccccc2)cc1" when tested on HEK293T (UBE3A T485A transfected, BAR Wnt reporter). 1.24

Determine reported Wnt reporter firefly/Renilla luciferase ratio for "CC(C)=CCC/C(C)=C\CO" ; test system: HEK293T (UBE3A T485A transfected, BAR Wnt reporter). 1.03

GET Wnt reporter firefly/Renilla luciferase ratio | system: HEK293T (UBE3A T485A transfected, BAR Wnt reporter) | item: "CC(C)=CCCC(C)=CC=O" 1.09

Fill: Wnt reporter firefly/Renilla luciferase ratio (HEK293T (UBE3A T485A transfected, BAR Wnt reporter)) for this compound "Sc1nc2ccccc2s1" 1.69

----------
- System: HEK293T (UBE3A T485A transfected, BAR Wnt reporter)
- assay comment: Wnt reporter firefly/Renilla luciferase ratio relative to plate median (fold (linear ratio)); higher = more Wnt/beta-catenin reporter activation
- setup conditions: concentration: 0.1 uM; 24 h
The full ranking holds about 1,100 compounds; the median of “Wnt reporter firefly/Renilla luciferase ratio relative to plate median” is about 1.1, and the highest 2% start at about 1.6. The sample holds the highest values, similar compounds and a random draw of the others, so the mix is not that of the screen.
measure: Wnt reporter firefly/Renilla luciferase ratio

Consider the compound Cl.Nc1ccn([C@@H]2O[C@H](CO)[C@@H](O)[C@@H]2O)c(=O)n1 [Cytarabine hydrochloride] . State its measured Wnt reporter firefly/Renilla luciferase ratio. 1.1

Tell me its Wnt reporter firefly/Renilla luciferase ratio given "Nc1ncn([C@@H]2O[C@H](CO)[C@@H](O)[C@H]2O)c(=O)n1" as the entry. 1.52

Give recorded Wnt reporter firefly/Renilla luciferase ratio. O=C(O)c1ccccc1C(=O)OCc1ccccc1 [Monobenzyl phthalate] 1.1

Dear colleague, please send me the reported Wnt reporter firefly/Renilla luciferase ratio for "CCCCCCCCCCCCc1ccccc1S(=O)(=O)O" when you can. 1.14

Hello, please tell me recorded Wnt reporter firefly/Renilla luciferase ratio for this one: "c1ccc(Nc2ccccc2)cc1" 1.08

State, in one line, measured Wnt reporter firefly/Renilla luciferase ratio of O=C(c1ccc(O)cc1O)c1ccc(O)cc1O [2,2',4,4'-Tetrahydroxybenzophenone] 1.29

Read the entry "COCCOC[C@H](CC1(C(=O)N[C@H]2CC[C@@H](C(=O)O)CC2)CCCC1)C(=O)Oc1ccc2c(c1)CCC2" and write its reported Wnt reporter firefly/Renilla luciferase ratio. 1.15

Specify reported Wnt reporter firefly/Renilla luciferase ratio for the compound shown: CC(C)CC(C=O)NC(=O)C(CC(C)C)NC(=O)C(CC(C)C)NC(=O)OCc1ccccc1 (stereo not drawn) 0.85
